In what follows, each item is paired with its GI50 for RPMI-8226 leukemia.

# example entries with known answers
• Cc1nc2ccccn2c1NC(=O)NNC(=S)Nc1ccc(Cl)cc1 = > 100 µM
• COc1cccc2c(Nc3ccc(C(=O)O)cc3)cc(-c3ccccc3)nc12 = > 100 µM

Now for a further compound.
Please give the measured GI50 for this compound: c1ccc(N2CCN(CN3CCN(c4ccccc4)C3)C2)cc1
60.9 µM

---

tested on: HOP-62 NSCLC
Give one outcome, nothing more. List: Yes for active, No for inactive

Each compound tested received a call. Report the one for COc1ccc(C(O)c2cc3c(N)c(C(=O)Nc4ccc(Br)cc4)sc3nc2C)cc1 (stereo not drawn) .
No

// query: O=C(Nc1ccc(OCc2nnc(-c3ccc(Cl)cc3)o2)c(F)c1)Nc1ccc(Cl)c(Cl)c1
No

// query: COC(=O)/C=C1/SC(=Nc2ccc(C(F)(F)F)cc2)N(CCc2c[nH]c3ccc(O)cc23)C1=O
No

// query: C=CC(=O)N1CC2(CCC(n3nc(-c4ccc(Oc5ccccc5)cc4)c4c(N)ncnc43)CC2)C1
Yes

---

tested on: EKVX NSCLC; assay: NCI tumour cell line growth inhibition, 48 h
property name: TGI

- O=C1CC(c2ccccc2Cl)C2(C(=O)NC(=S)NC2=O)C(c2ccccc2Cl)C1 (stereo not given): > 100 µM
- COC(=O)c1c(O)ccc2c1c1c(n2CCc2ccccc2)C(=O)c2ccccc2C1=O: 36.5 µM
- O=C(OC1C=C=CS(=O)(=O)CC#C/C=C\1)c1cnc2ccccc2n1 (stereo not given): > 100 µM

Now for a further compound.
Please give the measured TGI for this compound: CCCCC1C=Cn2c(=O)oc3c(OC(C)C)c(OC(C)C)c(O)c1c32 (stereo not given)
83.1 µM

---

# reported TGI; entries follow
system: HS 578T breast; experiment: NCI tumour cell line growth inhibition, 48 h
Give just the number in µM; leave the unit off.

* CN(C)CCCNc1c2c(nc3ccc(Cl)cc13)CCCC2 | 40.6

Now for a further compound.
Please give the measured TGI for this compound: C/C(=C\CO)CC/C=C(\C)CNc1ccccc1
97.8

---

system: UACC-257 melanoma; experiment: NCI tumour cell line growth inhibition, 48 h
property name: TGI

# example entries with known answers
- Cn1cnc2[nH]c(=O)[nH]c(=S)c21: > 100 µM
- CC(C1CCCC1=O)C1CCCC1=O (centres undefined): > 100 µM
- C/C=C1/C[C@@H](C)[C@@](C)(O)C(=O)OCC2=CC[N+]3([O-])CC[C@@H](OC1=O)[C@@H]23 (some centres undefined): > 100 µM
- CC(=O)Nc1ccc(C2C(C(=O)Nc3ccccc3C)=C(C)NC(C)=C2C(=O)Nc2ccccc2C)cc1: > 100 µM
- CC(=O)c1c(SCCN2CCCCCC2)n(-c2ccccc2)c(=S)n(-c2ccccc2)c1=O: 9.62 µM

Please give the measured TGI for this compound: COc1ccccc1N1CCN(CC(O)COc2c(Br)c(Br)c(Br)c3c2OC(C)(C)C3)CC1 (centres undefined)
> 100 µM

// query: CCCOC(=O)c1ccc2c(c1)[N+](=O)C(C(=O)c1ccccc1)=C(C(F)(F)F)[N+]2=O
3.22 µM

// query: COCP1(=S)OC(C)CCN1C(C)C (centres undefined)
> 100 µM

// query: COc1ccc(CN=C2N/C(=C\c3ccccc3Cl)C(=O)N2C)cc1
> 100 µM

// query: C[C@]12CCC3[C@@H](CC[C@@H]4c5nonc5CC[C@]34C)C1CCC2=O (some centres undefined)
40.4 µM

---

# reported TGI; entries follow
system: U251 CNS; assay: NCI tumour cell line growth inhibition, 48 h

Please give the measured TGI for this compound: Cc1nc2nn[nH]n2c(=O)c1CCO
> 100 µM

// query: COC(=O)c1cc2cc(OC)c(OC)cc2cc(C(=O)OC)c1=O
> 100 µM

// query: COC(=O)c1c(O)c2c(c3c1OC(C)(C)CC3)OC(C)(C)CC2
29.6 µM

// query: O=C1Nc2ccc(Br)cc2C1=Nc1ccc2c(c1)OCO2
25.3 µM

// query: O=C(/C=C/c1cccc(O)c1)c1cccc(-n2cc(-c3ccc(Cl)cc3)[nH]c2=O)c1
2.15 µM

---

# reported TGI; entries follow
test system: LOX IMVI melanoma; assay: NCI tumour cell line growth inhibition, 48 h

# example entries with known answers
• CCCCC1C=Cn2c(=O)oc3c(OC(C)C)c(OC(C)C)c(O)c1c32 (centres undefined) = 27.4 µM
• COCn1cnc2c(=O)n(-c3ccc(C)cc3)c(=S)n(-c3ccc(C)cc3)c21 = > 100 µM
• N#Cc1nc(-c2ccccc2C(=O)O)oc1N = > 100 µM
• COC(=O)C1=C(OC(=O)/C(=C/c2ccccc2)c2ccccc2)C(C(=O)OC)[C@@]2(O)[C@@H](C(=O)OC)[C@H](C)C[C@@H]1[C@@H]2C(=O)OC (some centres undefined) = > 100 µM
• O=c1c2ccccc2nc(-c2ccccc2Cl)n1NCC1(O)OCC(O)C(O)C1O (centres undefined) = > 100 µM

Please give the measured TGI for this molecule: C[C@]12CC[C@@H]3c4ccc(O)cc4CC[C@H]3[C@@H]1CC[C@@H]2NS(=O)(=O)c1cccc(OC(F)(F)F)c1
3.17 µM

---

tested on: ACHN renal; test: NCI tumour cell line growth inhibition, 48 h
# reported TGI; entries follow

# example entries with known answers
* CN(C)c1nc(N(C)C)sc(=O)n1 | > 100 µM
* Cc1cn(C(=O)NC23CC4CC(CC(C4)C2)C3)c(=O)[nH]c1=O | 94.1 µM
* CC(C)(NO)/C(=N\O)c1ccco1 | > 100 µM
* CCOC(=O)C1=NC(c2ccccc2)(c2ccccc2)OC1=C(Cl)Cl | > 100 µM
* C[C@]12CC[C@H](O)CC1=CC[C@@H]1C2CC[C@]2(C)NC(=O)C(C#N)CC12 (stereo partly drawn) | > 100 µM
* O=C(O)c1ccc(C=C2Sc3ccccc3S2)cc1 | 74.2 µM
* CC(C)Sc1nncc(/C(N)=N/O)n1 | > 100 µM
* Cc1c2ccccc2c(C)n2c1nc1cc3ccccc3cc12 | > 10 µM

Please give the measured TGI for this molecule: CNS(=O)(=O)NN(C)S(=O)(=O)c1ccc(OC)cc1
> 100 µM

---

tested on: SNB-75 CNS; assay: NCI tumour cell line growth inhibition, 48 h
property name: log10 of TGI (log10 of the value in µM)
Log scale reminder: TGI in µM, then log10 taken.

# example entries with known answers
- COc1cc(Nc2nc3c(N)cc(C(F)(F)F)cc3nc2-c2ccccc2)cc(OC)c1OC: 1.73
- Cc1c2ccccc2c(C)n2c1nc1cc3ccccc3cc12: 0.54
- COC1(C)OC[C@@]2(C)OC(C)C1(C)C2O[Si](C(C)C)(C(C)C)C(C)C (stereo not given in full): 1.84

Please give the measured log10 of TGI for this compound: C[C@]12CC[C@@H]3c4ccc(O)cc4CC[C@H]3[C@@H]1CC[C@@H]2NS(=O)(=O)c1cccc(OC(F)(F)F)c1
0.64

// query: COc1cc(C(C)c2cc3c(cc2OCCN)OCO3)cc(OC)c1OC (stereo not given)
1.67

// query: COc1ccc(-c2nnc(-c3nsc4ccccc34)o2)cc1
1.92

---

tested on: SNB-19 CNS; experiment: NCI tumour cell line growth inhibition, 48 h
property name: TGI

# example entries with known answers
- C=C1C(=O)[C@@]23CC[C@@H]4[C@@]5(C)CCC[C@@]4(OC5=O)C2(C)CC[C@]1(OC)C3 (stereo not given in full): 3.63 µM
- Clc1ccc(-c2noc(CN3CCCCC3)n2)cc1: > 100 µM
- Clc1ccc(Cl)c(NNc2cc(Cl)ccc2Cl)c1: > 10 µM
- Cc1cc(CN2CCCCC2)c(O)c(CN2CCCCC2)c1: > 100 µM
- COc1cc(/C=C2/SC(c3ccccc3)N(c3cc(Cl)ccc3Cl)C2=O)cc(OC)c1OC (stereo not given): > 100 µM
- O=C(NNc1cn[nH]c(=O)n1)c1cccc2nc3ccccc3nc12: > 100 µM

Please give the measured TGI for this compound: COc1ccc(C2=Nn3c(nnc3-c3ccccc3)S/C2=C\c2ccc(-c3ccc([N+](=O)[O-])cc3)o2)cc1
> 100 µM

// query: COc1ccc(C(O)c2cc3c(N)c(C(=O)Nc4ccc(Br)cc4)sc3nc2C)cc1 (stereo not given)
60.3 µM

// query: COc1ccc(-n2sc3ncc(C)cc3c2=O)cc1
> 100 µM

// query: COC(=O)c1cc(CC2Cc3cc4c(cc3C2)CCC4)cc2c1CCC2
> 100 µM

// query: Cc1ccc(-c2c3c(nn2-c2ccc(S(=O)(=O)NC(=O)Nc4ccccc4)cc2)-c2ccccc2C3)cc1
> 100 µM

// query: COc1ccc([C@H]2[C@H](C)C3=Nc4ccccc4CN32)cc1
> 100 µM

// query: CCCCCC(=O)n1[nH]c(=O)n(-c2ccc(OC)cc2)c1=O
> 100 µM

// query: CN(C)c1nc(N(C)C)sc(=O)n1
> 100 µM

// query: Brc1ccc2c(C3CN[C@@H](c4c[nH]c5cc(Br)ccc45)CN3)c[nH]c2c1 (stereo not given in full)
22.4 µM

// query: COc1ccc(/C=C/C(=O)c2ccc(NC(=O)CSc3nnc(-c4ccc(OC)c(OC)c4)n3-c3ccccc3)cc2)cc1
16.9 µM

// query: COc1cc(C(=O)/C=C/c2c(C)n([O-])c3ccc(C(F)(F)F)cc3[n+]2=O)cc(OC)c1OC
> 100 µM

// query: O=C(CC(=O)Nc1ccc(C(=O)O)cc1)Nc1ccc(C(=O)O)cc1
> 100 µM

// query: Clc1ccc(-c2ccc(CNCC3CCNCC3)o2)c(-c2ccccc2)c1
3.16 µM

// query: Cc1ccc(N=Nc2c(-c3ccccc3)nn(C(=O)CC(=O)Nc3ccc(Cl)cc3)c2-c2ccccc2)cc1
> 100 µM

// query: CC(=O)c1c(C)cn(S(=O)(=O)NC(=O)Nc2nncs2)c1C
> 100 µM

// query: O=c1c(Br)c(-c2ccccc2)[nH]c2ccccc12
> 100 µM

// query: COc1cc(C(C)c2cc3c(cc2OCCN)OCO3)cc(OC)c1OC (stereo not given)
> 100 µM

// query: CC(C)C(O)(C(=O)OCN1C(=O)C2C3C=CC(C2C1=O)C1C2C(=O)N(COC(=O)C(O)(C(C)C)C(C)O)C(=O)C2C31)C(C)O (stereo not given)
> 100 µM

// query: Cc1ccc2ccc(O)cc2c1
> 100 µM

// query: CCOC(=O)C(NC(=O)c1ccccc1)(Nc1cc(C)on1)C(F)(F)F (stereo not given)
> 100 µM
